From: paper PMC7734625

Assay: biodistribution in A431-CCK2R/A431-mock xenografted BALB/c nude mice
Format: in vivo
Details: female, athymic BALB/c nude, mouse, spleen, iv, 150 pmol, total radioactivity, 150 pmol, 4 h p.i.; read-out: uptake in spleen
Non-standard residues stand in square brackets, D forms with d. Residues, ends and D or L forms follow the SMILES beside them. *: point of attachment. DOTA = O=C(O)CN1CCN(CC(=O)O)CCN(CC(=O)*)CCN(CC(=O)O)CC1; 1Nal = N[C@@H](Cc1cccc2ccccc12)C(=O)O; NMeNle = CCCC[C@H](NC)C(=O)O
recorded_endpoint: tissue uptake at 4 h (%ID/g)
Respond with the bare value in %ID/g.

Request: Which tissue uptake at 4 h is listed for CCCC[C@@H](C(=O)N[C@@H](CC(=O)O)C(=O)N[C@@H](Cc1cccc2ccccc12)C(N)=O)N(C)C(=O)[C@H](Cc1c[nH]c2ccccc12)NC(=O)CNC(=O)[C@@H]1CCCN1C(=O)[C@H](Cc1ccc(O)cc1)NC(=O)[C@@H](CCC(=O)O)NC(=O)CN1CCN(CC(=O)O)CCN(CC(=O)O)CCN(CC(=O)O)CC1 [[^177Lu]Lu-2, metal not drawn] ({DOTA}-[dE]YPGW[NMeNle]D[1Nal]-NH2) ?
Response: 0.28
